# pIC50 per entry for PI3Kγ (Homo sapiens, UniProt P48736)
pIC50: −log10 of the molar value.

COc1ccc2oc(-c3ccc4nc(N)oc4c3)c/c(=N\c3ccccc3NC(=O)CCN)c2c1 [Compound 12j] :: < 5.00

Would you mind telling me what pIC50 value was observed for NCCC(=O)Nc1ccccc1/N=c1\cc(-c2ccc3nc(N)oc3c2)oc2ccccc12 [Compound 12a] ?
< 5.00

* * *

Target: mTOR (Homo sapiens, UniProt P42345)
Test: mTOR kinase inhibition, Lance Ultra assay
Assay type: biochemical
Details: mTOR, IC50, mean ± SD of triplicate measurements
Form field: IC50 (one value per entry).
Only the number, expressed in µM, is required.

O=C(Nc1ccccc1/N=c1\cc(-c2ccc3c(c2)OCO3)oc2ccccc12)N1CCNCC1 :: 7.47

Now let's try a different one.
Would you mind telling me what IC50 value was observed for NCCC(=O)Nc1ccccc1/N=c1\cc(-c2ccc3nc(N)oc3c2)oc2cc(O)ccc12 [Compound 12m] ?
0.0402

* * *

Assay: Pharmacokinetic study in SD rats
Type: in vivo
Conditions: Sprague-Dawley, rat, plasma, iv, 5 mg/kg
Reported property: MRT last (h)
Only the number, expressed in h, is required.

Would you mind telling me what MRT last value was observed for COc1ccc2oc(-c3ccc4nc(N)oc4c3)c/c(=N\c3ccccc3NC(=O)CCN)c2c1 [Compound 12j] ?
2.93

* * *

Assay: Pharmacokinetic study in SD rats
Type: in vivo
Details: Sprague-Dawley, rat, plasma, po, 20 mg/kg
Reported property: AUC(0-t) (ng·h/mL)
Only the number, expressed in ng·h/mL, is required.

Would you mind telling me what AUC(0-t) value was observed for COc1ccc2oc(-c3ccc4nc(N)oc4c3)c/c(=N\c3ccccc3NC(=O)CCN)c2c1 [Compound 12j] ?
5300

* * *

Form field: IC50 (one value per entry).
Molecular target: CYP 1A2 (Homo sapiens)
Sequence (P05177 1-516): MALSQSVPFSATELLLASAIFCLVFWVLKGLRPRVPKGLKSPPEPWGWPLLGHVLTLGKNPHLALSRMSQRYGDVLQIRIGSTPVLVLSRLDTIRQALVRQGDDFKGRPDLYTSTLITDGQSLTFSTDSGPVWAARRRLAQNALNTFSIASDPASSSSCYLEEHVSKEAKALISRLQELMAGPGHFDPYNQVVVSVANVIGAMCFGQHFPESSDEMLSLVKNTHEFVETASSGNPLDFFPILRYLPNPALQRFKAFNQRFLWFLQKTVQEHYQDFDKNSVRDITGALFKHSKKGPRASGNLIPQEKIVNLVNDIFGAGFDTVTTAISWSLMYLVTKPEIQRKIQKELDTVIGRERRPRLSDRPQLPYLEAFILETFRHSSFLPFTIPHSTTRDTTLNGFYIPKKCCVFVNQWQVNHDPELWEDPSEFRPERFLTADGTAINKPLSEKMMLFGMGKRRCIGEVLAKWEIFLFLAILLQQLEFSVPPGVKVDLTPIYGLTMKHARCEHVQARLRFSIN

COc1ccc2oc(-c3ccc4nc(N)oc4c3)c/c(=N\c3ccccc3NC(=O)CCN)c2c1 [Compound 12j] :: > 50 µM

Now let's try a different one.
Find the measured IC50: item NCCC(=O)Nc1ccccc1/N=c1\cc(-c2ccc3nc(N)oc3c2)oc2ccccc12 [Compound 12a] , target or system CYP 1A2 (Homo sapiens).
> 50 µM

* * *

Target: UniProt:P42338
Sequence (P42338 whole entry): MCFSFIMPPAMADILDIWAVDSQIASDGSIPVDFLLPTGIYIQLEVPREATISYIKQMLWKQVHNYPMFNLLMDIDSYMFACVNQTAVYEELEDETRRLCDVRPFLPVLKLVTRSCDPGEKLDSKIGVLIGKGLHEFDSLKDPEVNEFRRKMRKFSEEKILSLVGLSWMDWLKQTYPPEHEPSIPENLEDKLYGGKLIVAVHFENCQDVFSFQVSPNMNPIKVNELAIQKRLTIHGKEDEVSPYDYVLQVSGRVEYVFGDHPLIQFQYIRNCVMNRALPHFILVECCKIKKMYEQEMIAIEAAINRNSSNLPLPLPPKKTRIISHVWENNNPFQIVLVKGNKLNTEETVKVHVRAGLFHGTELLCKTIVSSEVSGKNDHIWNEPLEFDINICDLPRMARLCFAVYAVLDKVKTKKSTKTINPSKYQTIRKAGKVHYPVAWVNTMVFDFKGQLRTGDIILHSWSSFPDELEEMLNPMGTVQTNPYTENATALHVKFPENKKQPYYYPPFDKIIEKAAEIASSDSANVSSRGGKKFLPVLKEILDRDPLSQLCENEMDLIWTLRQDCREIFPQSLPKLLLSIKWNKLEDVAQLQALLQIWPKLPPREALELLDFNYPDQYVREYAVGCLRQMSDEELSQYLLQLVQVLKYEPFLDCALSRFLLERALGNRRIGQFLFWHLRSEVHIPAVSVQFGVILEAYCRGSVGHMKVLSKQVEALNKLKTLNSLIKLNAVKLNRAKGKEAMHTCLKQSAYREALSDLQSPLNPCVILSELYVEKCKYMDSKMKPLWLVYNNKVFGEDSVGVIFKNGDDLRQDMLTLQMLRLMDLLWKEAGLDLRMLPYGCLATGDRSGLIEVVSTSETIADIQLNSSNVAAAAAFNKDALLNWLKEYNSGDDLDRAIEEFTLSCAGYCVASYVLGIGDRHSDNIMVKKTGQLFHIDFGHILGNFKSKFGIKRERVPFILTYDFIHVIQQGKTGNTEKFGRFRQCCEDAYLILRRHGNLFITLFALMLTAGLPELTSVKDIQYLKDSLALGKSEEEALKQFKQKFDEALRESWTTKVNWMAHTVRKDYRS
Sequence (P27986 whole entry partner): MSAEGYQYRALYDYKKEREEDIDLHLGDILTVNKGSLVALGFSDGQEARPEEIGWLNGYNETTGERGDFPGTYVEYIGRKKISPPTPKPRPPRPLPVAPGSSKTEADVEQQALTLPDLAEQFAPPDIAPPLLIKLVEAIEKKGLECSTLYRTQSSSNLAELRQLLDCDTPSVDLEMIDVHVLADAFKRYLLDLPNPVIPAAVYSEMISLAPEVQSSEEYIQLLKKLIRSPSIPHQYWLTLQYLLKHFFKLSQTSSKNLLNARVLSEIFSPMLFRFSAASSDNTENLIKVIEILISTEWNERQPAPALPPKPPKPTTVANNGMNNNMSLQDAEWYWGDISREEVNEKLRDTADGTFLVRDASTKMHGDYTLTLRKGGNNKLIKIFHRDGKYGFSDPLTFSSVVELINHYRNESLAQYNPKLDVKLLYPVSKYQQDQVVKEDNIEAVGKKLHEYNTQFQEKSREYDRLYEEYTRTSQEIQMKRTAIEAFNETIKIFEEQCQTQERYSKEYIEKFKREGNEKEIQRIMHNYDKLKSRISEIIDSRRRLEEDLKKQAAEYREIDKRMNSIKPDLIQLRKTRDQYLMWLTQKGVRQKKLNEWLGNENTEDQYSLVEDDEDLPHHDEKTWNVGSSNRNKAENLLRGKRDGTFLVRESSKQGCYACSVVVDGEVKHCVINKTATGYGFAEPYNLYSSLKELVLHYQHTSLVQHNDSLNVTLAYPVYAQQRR
Test: biochemical
Reported property: IC50

NCCC(=O)Nc1ccccc1/N=c1\cc(-c2ccc3nc(N)oc3c2)oc2ccccc12 [Compound 12a] :: > 10 µM

Now let's try a different one.
Would you mind telling me what IC50 value was observed for COc1ccc2oc(-c3ccc4nc(N)oc4c3)c/c(=N\c3ccccc3NC(=O)CCN)c2c1 [Compound 12j] ?
> 10 µM

* * *

Molecular target: UniProt P42345
Assay: mTOR kinase inhibition, Lance Ultra assay
Type: biochemical
Conditions: mTOR, IC50, mean ± SD of triplicate measurements
Reported property: pIC50
For clarity, pIC50 is expressed as the negative log10 of concentration in mol/L.

As a guide, the following entries are already answered.
Nc1nc2ccc(-c3c/c(=N\c4ccccc4NC(=O)C4CCNC4)c4ccccc4o3)cc2o1 (stereo not shown) [Compound 12i] :: 6.78
CN(C)CCC(=O)Nc1ccccc1/N=c1\cc(-c2ccc3nc(N)oc3c2)oc2ccccc12 [Compound 12e] :: 5.58

Now let's try a different one.
Would you mind telling me what pIC50 value was observed for NCCC(=O)Nc1ccccc1/N=c1\cc(-c2ccc3nc(N)oc3c2)oc2cc(Br)ccc12 [Compound 12o] ?
5.03

* * *

Experiment: Pharmacokinetic study in SD rats
Format: in vivo
Details: Sprague-Dawley, rat, plasma, po, 20 mg/kg
Reported property: MRT last (h)
Only the number, expressed in h, is required.

Would you mind telling me what MRT last value was observed for COc1ccc2oc(-c3ccc4nc(N)oc4c3)c/c(=N\c3ccccc3NC(=O)CCN)c2c1 [Compound 12j] ?
5.44

* * *

Assay: Pharmacokinetic study in SD rats
Format: in vivo
Conditions: Sprague-Dawley, rat, plasma, po, 20 mg/kg
Reported property: Tmax (h)
Only the number, expressed in h, is required.

Would you mind telling me what Tmax value was observed for COc1ccc2oc(-c3ccc4nc(N)oc4c3)c/c(=N\c3ccccc3NC(=O)CCN)c2c1 [Compound 12j] ?
1.4

* * *

Test: Pharmacokinetic study in SD rats
Format: in vivo
Details: Sprague-Dawley, rat, plasma, iv, 5 mg/kg
Reported property: AUC(0-t) (ng·h/mL)
Only the number, expressed in ng·h/mL, is required.

Would you mind telling me what AUC(0-t) value was observed for COc1ccc2oc(-c3ccc4nc(N)oc4c3)c/c(=N\c3ccccc3NC(=O)CCN)c2c1 [Compound 12j] ?
28800

* * *

Molecular target: mTOR (Homo sapiens)
Assay: mTOR kinase inhibition, Lance Ultra assay
Format: biochemical
Conditions: mTOR, IC50, mean ± SD of triplicate measurements
Reported property: pIC50
For clarity, pIC50 is expressed as the negative log10 of concentration in mol/L.

NCCC(=O)Nc1ccccc1/N=c1\cc(-c2ccc3nc(N)oc3c2)oc2ccccc12 [Compound 12a] :: 7.34
Nc1ccccc1/N=c1\cc(-c2ccc3c(c2)OCO3)oc2ccccc12 :: 5.81
NCC(=O)Nc1ccccc1/N=c1\cc(-c2ccc3c(c2)OCCO3)oc2ccccc12 :: 5.82

Now let's try a different one.
Would you mind telling me what pIC50 value was observed for `NCCC(=O)Nc1ccccc1/N=c1\cc(-c2ccc3oc(N)nc3c2)oc2ccccc12` ?
6.16

* * *

Assay: Pharmacokinetic study in SD rats
Format: in vivo
Conditions: Sprague-Dawley, rat, plasma, po, 20 mg/kg
Reported property: half-life (h)
Only the number, expressed in h, is required.

Would you mind telling me what half-life value was observed for COc1ccc2oc(-c3ccc4nc(N)oc4c3)c/c(=N\c3ccccc3NC(=O)CCN)c2c1 [Compound 12j] ?
14

* * *

# IC50 per entry for UniProt P33261
# Sequence (P33261 whole entry): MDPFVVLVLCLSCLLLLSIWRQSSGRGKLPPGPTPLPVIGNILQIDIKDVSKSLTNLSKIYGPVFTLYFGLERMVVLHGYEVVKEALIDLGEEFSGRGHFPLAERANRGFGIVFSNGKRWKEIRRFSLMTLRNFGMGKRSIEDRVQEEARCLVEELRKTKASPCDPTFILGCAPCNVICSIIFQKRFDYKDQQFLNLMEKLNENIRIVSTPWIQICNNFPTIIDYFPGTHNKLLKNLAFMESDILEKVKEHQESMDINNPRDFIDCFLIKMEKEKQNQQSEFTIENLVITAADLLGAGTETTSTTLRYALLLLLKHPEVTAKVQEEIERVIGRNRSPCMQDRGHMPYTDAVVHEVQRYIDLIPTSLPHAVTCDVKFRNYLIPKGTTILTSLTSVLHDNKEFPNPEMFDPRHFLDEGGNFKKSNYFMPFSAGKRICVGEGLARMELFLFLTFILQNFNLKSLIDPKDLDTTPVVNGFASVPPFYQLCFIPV

NCCC(=O)Nc1ccccc1/N=c1\cc(-c2ccc3nc(N)oc3c2)oc2ccccc12 [Compound 12a] :: 680 nM

Would you mind telling me what IC50 value was observed for COc1ccc2oc(-c3ccc4nc(N)oc4c3)c/c(=N\c3ccccc3NC(=O)CCN)c2c1 [Compound 12j] ?
> 50000 nM

* * *

Assay: Pharmacokinetic study in SD rats
Assay type: in vivo
Details: Sprague-Dawley, rat, plasma, oral, 20 mg/kg
Reported property: bioavailability (%)
Only the number, expressed in %, is required.

Would you mind telling me what bioavailability value was observed for COc1ccc2oc(-c3ccc4nc(N)oc4c3)c/c(=N\c3ccccc3NC(=O)CCN)c2c1 [Compound 12j] ?
4.75

* * *

Experiment: Pharmacokinetic study in SD rats
Assay type: in vivo
Details: Sprague-Dawley, rat, plasma, po, 20 mg/kg
Reported property: AUC(0-inf) (ng·h/mL)
Only the number, expressed in ng·h/mL, is required.

Would you mind telling me what AUC(0-inf) value was observed for COc1ccc2oc(-c3ccc4nc(N)oc4c3)c/c(=N\c3ccccc3NC(=O)CCN)c2c1 [Compound 12j] ?
5680

* * *

Target: UniProt P42345
Assay: mTOR kinase inhibition, Lance Ultra assay
Format: biochemical
Conditions: mTOR, IC50, mean ± SD of triplicate measurements
Reported property: IC50 (µM)
Only the number, expressed in µM, is required.

NCC(=O)Nc1ccccc1/N=c1\cc(-c2ccc3c(c2)OCO3)oc2ccccc12 :: 0.719
C[C@H](N)C(=O)Nc1ccccc1/N=c1\cc(-c2ccc3c(c2)OCO3)oc2ccccc12 :: 3.19
N#Cc1ccc2oc(-c3ccc4nc(N)oc4c3)c/c(=N\c3ccccc3NC(=O)CCN)c2c1 [Compound 12l] :: 1.24

Would you mind telling me what IC50 value was observed for `CCNc1nc2ccc(-c3c/c(=N\c4ccccc4NC(=O)CCN)c4ccccc4o3)cc2o1` ?
2.66
